# ASSAY_DETAILS: NCI Yeast Anticancer Drug Screen. Data for the cln2 rad14 strain (AID 165);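 note: 0% = growth equal to vehicle treated cultures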
# APPLIED_CONDITIONS: S. cerevisiae cln2 rad14 strain, at 50.0 µM (retest, dose inferred, filed as 5.0), hits give high values
# Procedure: Growth inhibition of yeast strains with defined genetic alterations is measured as a screen for potential anti-cancer activity. Selected strains with alterations in DNA damage repair or cell cycle control were exposed to compounds and growth inhibition was measured relative to vehicle treated controls. The strain used in this assay is cln2 rad14
The panel holds about 79,000 compounds, 15% with a hit somewhere; the sample as a whole holds those more often.
Would you mind telling me the reported growth inhibition of each entry?
Respond with the bare value in %.

Field growth inhibition (entry [I][Hg][CH2]C1COCC([CH2][Hg][I])O1 (stereo unspecified) ) reads 7

Field growth inhibition (entry CCCCCCCCCCCC[As](=O)(O)O ) reads 46

Field growth inhibition (entry O=C(CBr)Nc1ccccc1Cl ) reads 99

Field growth inhibition (entry CCCCCCCCCCCCCCCCP(=O)(O)OCC(N)C(=O)O (stereo unspecified) ) reads 7

Field growth inhibition (entry Nc1ccc(Cl)cc1C(=O)c1ccccc1 ) reads 96

Field growth inhibition (entry CC(=O)OCC1OC(OC(C)C)[CH]([Hg][S]Cc2ccccc2)C(OC(C)=O)C1OC(C)=O (stereo unspecified) ) reads 98

Field growth inhibition (entry CCCCCCCCCCCCCCCCCC[N+](C)(C)C ) reads 95

Field growth inhibition (entry Cc1cc(N(CCCl)CCCl)ccc1CN1CCCN(Cc2ccc(N(CCCl)CCCl)cc2C)C1c1ccc(N(CCCl)CCCl)cc1C ) reads 98

Field growth inhibition (entry C=CC[N+]12CN3CN(CN(C3)C1)C2 ) reads 96

Field growth inhibition (entry Cc1ccc(C#CCN2CCCCC2)cn1 ) reads -46

Field growth inhibition (entry FC1(F)C(Cl)=[C]([Hg][C]2=C(Cl)C(F)(F)C(F)(F)C(F)(F)C2(F)F)C(F)(F)C(F)(F)C1(F)F ) reads 99

###

# ASSAY_DETAILS: NCI Yeast Anticancer Drug Screen. Data for the rad50EPP+ strain (AID 151);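 note: 0% = growth of vehicle-treated control cultures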
# APPLIED_CONDITIONS: S. cerevisiae rad50 mutant strain, at 3.7 µM
The panel holds about 79,000 compounds, 15% with a hit somewhere; the sample as a whole holds those more often. Active and inactive are the calls of the source. Rule as the data show it: active = growth inhibition above about 70%; inactive = the rest.
Choose the fitting class; nothing outside active, inactive is accepted.

How did this test come out for CC1=C(O)C(=O)C=C2C1=CC=C1[C@@]2(C)CCC2(C)[C@@H]3C[C@@H](C)C(=O)C[C@]3(C)CC[C@]12C (some centres undefined) ?
inactive

How did this test come out for CCOC(=O)C1=C(C(=O)OCC)C2(c3ccccc3)N(O1)c1ccccc1C2(C)C (centres undefined) ?
inactive

How did this test come out for O=C(c1ccccc1)C1C(c2ccccc2[N+](=O)[O-])N1C1CCCCC1 (centres undefined) ?
inactive

How did this test come out for OCC(O)C(O)CO (centres undefined) (tested in a mixture with another compound) ?
inactive

How did this test come out for c1ccc2cc3n[se]nc3cc2c1 ?
inactive

How did this test come out for COc1cc(C2c3cc4c(cc3[C@@H](Nc3ccc(N)cc3)C3COC(=O)[C@H]23)OCO4)cc(OC)c1O (some centres undefined) ?
inactive

How did this test come out for Nc1ccccc1C(=O)OCCc1ccccc1 ?
inactive

How did this test come out for O=c1oc2ccccc2c(O)c1C(c1ccc2ccccc2c1)c1c(O)c2ccccc2oc1=O ?
inactive

How did this test come out for COc1cc2ccccc2c2cc([N+](=O)[O-])oc12 ?
active

How did this test come out for CCN(CCCl)CCCCNc1c2ccccc2nc2ccc(OC)cc12 ?
inactive

How did this test come out for Cc1ccc2nc3sc(=O)sc3nc2c1 ?
inactive

How did this test come out for C[C@]12CC[C@H](O)CC1=CC[C@@H]1[C@@H]2CC[C@]2(C)C(=O)CC[C@@H]12 ?
inactive

How did this test come out for Oc1ccc2nc3ccccc3nc2c1 ?
inactive

How did this test come out for Cc1c([N+](=O)[O-])oc2ccc3ccccc3c12 ?
inactive

How did this test come out for O=C1C=C(CN(CCCl)CCCl)C(=O)C=C1CN(CCCl)CCCl ?
inactive

How did this test come out for CC1(C)N=C(N)N=C(N)N1c1cccc(N)c1.[Sn] ?
inactive

How did this test come out for C[C@@]12CCC(=O)C=C1CC[C@H]1C2=CC[C@]2(C)C1CC[C@@]2(C)O (some centres undefined) ?
inactive

How did this test come out for Oc1c(Br)cc(Br)cc1Br ?
inactive

How did this test come out for Cc1ccc2c(c1)C1(C)c3cc(C)ccc3SP1S2 (centres undefined) ?
inactive

How did this test come out for O=[N+]([O-])c1oc2ccc3ccccc3c2c1CCO ?
active

How did this test come out for C[N+](CCCl)(CCCl)Cc1cccc2cccc([N+](=O)[O-])c12 ?
inactive

How did this test come out for c1c(N2CCOCC2)ssc1=[N+]1CCOCC1 ?
inactive

How did this test come out for O=C(O)C1C2c3ccccc3C(c3ccccc32)C1C(=O)O (centres undefined) ?
inactive

How did this test come out for Br[Se]c1ccccn1 ?
inactive

###

# ASSAY_DETAILS: NCI Yeast Anticancer Drug Screen. Data for the rad52 strain (AID 147);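 note: 0% = growth of vehicle-treated control cultures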
# APPLIED_CONDITIONS: S. cerevisiae rad52 mutant growth inhibition; at 1.2 µM; hits give high values
The panel holds about 79,000 compounds, 15% with a hit somewhere; the sample as a whole holds those more often. Activity calls are given as the source filed them. Rule as the data show it: active = growth inhibition above about 70%; inactive = the rest.
OBSERVABLE: growth inhibition

Field growth inhibition (entry CNC(=O)OCC1C2=C(C(=O)C(C)=C(N)C2=O)N2CC3C(N3C)C12OC (centres undefined) ) reads 8% (inactive)

Field growth inhibition (entry C[C@]12CCC(=O)C=C1CC[C@@H]1C2CC[C@@]2(C)C1CC[C@@H]2OC(=O)C12OC1CCC2=O (some centres undefined) ) reads 0% (inactive)

Field growth inhibition (entry O=C1C2CC(Cl)C(SSC3CC4C(=O)N(SC(Cl)(Cl)C(Cl)Cl)C(=O)C4CC3Cl)CC2C(=O)N1SC(Cl)(Cl)C(Cl)Cl (centres undefined) ) reads 71% (active)

Field growth inhibition (entry COc1cccc2c1C(=O)c1c(O)c3c(c(O)c1C2=O)C[C@@](O)(C(C)=O)C[C@@H]3OC1CC(N)C(OC2CC(O)C(O)C(C)O2)C(C)O1 (some centres undefined) ) reads 16% (inactive)

###

# ASSAY_DETAILS: NCI Yeast Anticancer Drug Screen. Data for the wt2 strain (AID 169);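 note: 0% = growth of vehicle-treated yeast cultures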
# APPLIED_CONDITIONS: S. cerevisiae wt2 strain growth inhibition; at 1.2 µM; hits give high values
The panel holds about 79,000 compounds, 15% with a hit somewhere; the sample as a whole holds those more often.
Would you mind telling me the reported growth inhibition of each entry?
Respond with the bare value in %.

Field growth inhibition (entry CCCCCCCCCCCCCCCCP(=O)(O)OP(=O)(O)OCC1OC(n2ccc(N)nc2=O)C(O)C1O (configuration not stated) ) reads 1

Field growth inhibition (entry CC(C)(C)c1cc([N+](=O)[O-])cc([N+](=O)[O-])c1O ) reads -35

Field growth inhibition (entry CC[C@@]1(O)C(=O)OCc2c1cc1n(c2=O)Cc2cc3ccccc3nc2-1 ) reads 17

Field growth inhibition (entry C[N+](C)(C)CC1CCCC(C[N+](C)(C)C)C1=O (configuration not stated) ) reads -3

Field growth inhibition (entry O=C(O)C1C2c3ccccc3C(c3ccccc32)C1C(=O)O (configuration not stated) ) reads 0

Field growth inhibition (entry O=C1c2ccc3ccccc3c2CCC1N1CCCCC1 (configuration not stated) ) reads 5

Field growth inhibition (entry N#CC(C#N)=Cc1ccc(C#N)cc1 ) reads -1

Field growth inhibition (entry C=CC[N+]12CN3CN(CN(C3)C1)C2 ) reads -49

Field growth inhibition (entry Cc1cc(N=Nc2ccccc2C)ccc1N ) reads 2

Field growth inhibition (entry C/C(=N\N=C(N)N)C(CN1CCOCC1)C(c1ccccc1)c1c(O)c2ccccc2oc1=O (configuration not stated) ) reads -1

Field growth inhibition (entry Nc1ccccc1C(=O)OCCc1ccccc1 ) reads -16

Field growth inhibition (entry O=C(Nc1cc(Cl)ccc1Cl)C(Cl)(Cl)Cl ) reads 1

###

# ASSAY_DETAILS: NCI Yeast Anticancer Drug Screen. Data for the sgs1 mgt1 strain (AID 161);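 note: 0% = growth of cultures given vehicle only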
# APPLIED_CONDITIONS: S. cerevisiae sgs1 mgt1 strain, at 50.0 µM (retest, dose inferred, filed as 5.0), hits give high values
Compounds without any hit were thinned out: in the full panel of roughly 79,000, 15% have a hit. Activity calls are given as the source filed them. Cut-off read from the data, not from the text of the source: active = growth inhibition above about 70%; inactive = the rest. *1 amine or outer side, *2 acyl side, *3 side chain or, on linkers, in order; H or OH if unused. Where a SMILES comes first, the peptide text is derived from it. [ ]: non-standard residue; d: D form. X2 = CC[C@H](C)[C@H](OC(=O)[C@@H](C)[C@@H](CC)N[*:1])C(=O)[*:2]; X3 = C[C@H](N[*:1])C(=O)C(C)(C)C(=O)[*:2]; NMeY = CN[C@@H](Cc1ccc(O)cc1)C(=O)O; NMeL = CN[C@@H](CC(C)C)C(=O)O; NMeV = CN[C@H](C(=O)O)C(C)C
OBSERVABLE: growth inhibition

Field growth inhibition (entry CCCCN(C)CC(C(C)=O)C(c1ccccc1)c1c(O)c2ccccc2oc1=O (centres undefined) ) reads 11% (inactive)

Field growth inhibition (entry CCN(CC)P1(=O)OC(c2ccccc2)=CCN1c1ccc(OC)cc1 (centres undefined) ) reads 95% (active)

Field growth inhibition (entry COc1ccc(C2N(Cc3ccc(N(CCCl)CCCl)cc3C)CCCN2Cc2ccc(N(CCCl)CCCl)cc2C)cc1 ) reads 99% (active)

Field growth inhibition (entry CCOC(=O)C1=C(C(=O)OCC)C2(c3ccccc3)N(O1)c1ccccc1C2(C)C (centres undefined) ) reads 71% (active)

Field growth inhibition (entry [Br][Ni][Br].c1ccc(CN2CCN(Cc3ccccc3)CCN(Cc3ccccc3)CCN(Cc3ccccc3)CC2)cc1 ) reads 65% (inactive)

Field growth inhibition (entry O=C1c2ccc3ccccc3c2CCC1N1CCCCC1 (centres undefined) ) reads 98% (active)

Field growth inhibition (entry CC[C@H](C)[C@@H]1OC(=O)[C@@H](C)[C@@H](CC)NC(=O)[C@H](C)NC(=O)C(C)(C)C(=O)[C@H](C)NC(=O)[C@H](Cc2ccc(OC)cc2)N(C)C(=O)[C@H](C(C)C)N(C)C(=O)CNC(=O)[C@H](CC(C)C)N(C)C(=O)CNC1=O (cyclo(A[X2]G[NMeL]G[NMeV][NMeY](Me)[X3])) ) reads 99% (active)

Field growth inhibition (entry Cc1ccccc1NC(=O)CBr ) reads 99% (active)

Field growth inhibition (entry Cc1c([N+](=O)[O-])oc2ccc3ccccc3c12 ) reads 92% (active)

Field growth inhibition (entry O=[N+]([O-])C(Br)(Br)CCC(Br)(Br)[N+](=O)[O-] ) reads 99% (active)

Field growth inhibition (entry CCC[CH2][Sn]1([CH2]CCC)[O]C(c2ccccn2)S(=O)(=O)[O]1 (centres undefined) ) reads 18% (inactive)

Field growth inhibition (entry CCOP(=O)(CC(C)P(=O)(OCC)OCC)OCC.C[CH2][Sn]([Cl])([Cl])[CH2]C (centres undefined) ) reads 4% (inactive)

Field growth inhibition (entry CC(=O)OC1CCC2(C)C3=C(CCC2C1(C)C)C1(C)CCC(C(C)CCC2NC2(C)C)C1(C)CC3 (centres undefined) ) reads 98% (active)

Field growth inhibition (entry CC(=O)Nc1ccc(/C=N/N=C(/N)N[N+](=O)[O-])cc1 ) reads -1% (inactive)

Field growth inhibition (entry Nc1c(Br)cc(Br)c2c1C(=O)c1ccccc1C2=O ) reads 0% (inactive)

Field growth inhibition (entry COc1cc(C(c2c(O)c3ccccc3oc2=O)c2c(O)c3ccccc3oc2=O)cc(OC)c1O ) reads 12% (inactive)

Field growth inhibition (entry N#CC(C#N)=Cc1cccc([N+](=O)[O-])c1 ) reads 84% (active)

Field growth inhibition (entry COC(=O)C1=C(C(=O)OC)SC2(S1)C(C(=O)OC)=C(C(=O)OC)Sc1c2ssc1=O ) reads 95% (active)

Field growth inhibition (entry CCCCCOC(=O)CCl ) reads 40% (inactive)
